Numbers sourced from patent US20210040181A1.

target: EGFR 525-Fc (human) (UniProt P00533); assay: direct binding ELISA, single point; clone captured by anti-His, 50 nM receptor-Fc, anti-human Fc HRP
Endpoint: A450

Example binders with recorded A450:
Binder: 679B01 (designed binder, 10Fn3-based clone expressed in E. coli as His6 tagged protein; not shown: His6 tag) VSDVPRDLEVVAATPTSLLISWLLLGAPCRYYRITYGETGGNSPVQEFTVPWMGLTATISGLKPGVDYTITVYAVTSERAPCVKVWRCPISINYRT
A450: 0.539 A450
//
Binder: 867A05 (designed binder, 10Fn3-based clone expressed in E. coli as His6 tagged protein; not shown: His6 tag) VSDVPRDLEVVAATPTSLLISWYYRKYPGRYYRITYGETGGNSPVQEFTVPDEHTTATISGLKPGVDYTITVYAVTYDSPSQPISINYRT
A450: 1.61 A450
//
Binder: 679F03 (designed binder, 10Fn3-based clone expressed in E. coli as His6 tagged protein; not shown: His6 tag) VSDVPRDLEVVAATPTSLLISWYHYYSGSQRYYRITYGETGGNSPVQEFTVPHEVYTATISGLKPGVDYTITVYAVTDYAYKEYEEYPISINYRT
A450: 2.45 A450

Alright, here's another binder for you.
Respond only with A450 recorded for 867C04 (designed binder, 10Fn3-based clone expressed in E. coli as His6 tagged protein; not shown: His6 tag) VSDVPRDLEVVAATPTSLLISWESKYVNYRYYRITYGETGGNSPVQEFTVPHLMTATISGLKPGVDYTITVYAVTVGGDHMYSSLPISINYRT
1.57 A450
